- recorded conditions: buffer; pH 7.4; 200.0 µM
outcome measure: log10 solubility kinetic (log10 of the value in µg/mL)
In our notation, the value equals log10 of solubility kinetic in µg/mL.

| compound | endpoint value |
| --- | --- |
| COc1ccc(CCNC(=O)COC(=O)c2cc(=O)[nH]c3ccccc23)cc1 | 0.95 |
| O=C(/C=C/c1ccccc1)NC(=S)Nc1ccccc1O | -0.30 |
| CC1(C)C(C(=O)N2CCN(c3ccc(Cl)cc3)CC2)C1(C)C | -0.30 |
| Cc1ccc(OCC(=O)N2CCC(C)CC2)c([N+](=O)[O-])n1 | 1.63 |
| Cc1ccc(CN2CCN(C3CCC3)CC2CCO)cc1 (stereo unspecified) | 1.63 |
| C=CCNC(=S)/N=c1/ccccn1Cc1ccccc1 | 1.60 |

query: # return recorded log10 solubility kinetic for input CCc1ccc(N2CN(CCc3ccccc3)CNC2=S)cc1
result: 0.20

query: Please report log10 solubility kinetic for the following compound: COc1ccc(C(=O)COC(=O)[C@@H](NS(=O)(=O)c2ccccc2)C(C)C)cc1
result: 0.89
